assay: inhibitors of E-selectin induction by TNFa, primary screen, imaging, HUVEC, immunofluorescence, MLSMR starter and 10KST1 sets (AID 487); details: HUVEC TNFalpha-induced E-selectin immunofluorescence imaging, at 2 µM; measured here: cell number, toxicity;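 also: 100% = median nuclei count of all wells on the same plate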
Listing: nuclei count of selected molecules
# unit: % | format: bare number

As a guide, the following entries are already answered.
Q) Kindly indicate its recorded nuclei count. Item: "CCOc1ccc(-n2c3nc4ccccc4nc3c3c(=O)n(Cc4ccco4)cnc32)cc1"
A) 171

Q) Supply reported nuclei count belonging to this molecule: "CCOc1nnnc2c1sc1nc(N3CCOCC3)c3c(c12)CC(C)(C)OC3"
A) 116

Q) Specify reported nuclei count for the molecule shown: "Oc1ccc(Br)cc1CNn1cnnc1"
A) 122

Q) Name the recorded nuclei count of the molecule listed here: "CCCC(=O)Nc1sc2c(c1C#N)CCCC2"
A) 110

Q) Please list nuclei count recorded for the molecule CC1(C)CC(=O)C(C=NCC(O)c2ccccc2)=C(O)C1 (centres undefined)
A) 204

Q) State, in one line, measured nuclei count of O=C(CCCN1C(=O)c2ccccc2C1=O)N1CCC(c2ccccc2)C1 (centres undefined)
A) 123

Q) Look up nuclei count of O=C(O)CC1Sc2nc3ccccc3n2C1=O (centres undefined) and report it.
A) 116

Q) Look up and state reported nuclei count for CCN(CC)CCN1C(=O)C(=O)/C(=C(/O)c2ccc(OC(C)C)cc2)C1c1ccncc1 (centres undefined)
A) 104

Q) Complete the entry with nuclei count for "NC(=O)c1cc(-c2ccccc2)nc(Oc2ccccc2)n1"
A) 109

Q) // Input: O=C(O)c1cc2n(n1)C(C(F)(F)F)CC(c1ccccc1)N2 (centres undefined) . Output its nuclei count only.
A) 117

***
Q) Give the value of nuclei count reported for the following: CC(=O)NC1(C(F)(F)F)C(=O)Nc2c1c(=O)n(C)c(=O)n2C (centres undefined)
A) 144

Q) For the molecule "CCN1CCc2c(C#N)c(NCc3ccccc3)nc(NCCO)c2C1" , give its reported nuclei count.
A) 151

Q) Item "COc1ccc(C2=Nn3c(nnc3-c3ccccn3)SC2)cc1" : provide nuclei count
A) 169

Q) # return recorded nuclei count for entry "CCOC(=O)CCc1c(C)c(C#N)c2nc3ccccc3n2c1-n1ccnc1"
A) 140

---

target: Voltage-gated potassium channel subunit beta-2 (Rattus norvegicus); experiment: KvBeta enzyme negative modulators, primary screen, biochemical, NADPH fluorescence (AID 622); settings: recombinant KvBeta, 4-cyanobenzaldehyde reduction, at 10 µM, stronger effect = higher value;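 also: slope of raw intensity against log time taken from 70 to 1610 s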
fluorescence slope: recorded values
Number only, no unit.

Q) Identify fluorescence slope associated with the compound CCC12CN3CC(CC)(CN(C1)C3c1c(O)ccc3ccccc13)C2=O (stereo not drawn)
A) -0.336

Q) Let me know recorded fluorescence slope for "COc1ccc(Cl)cc1N=Cc1c(O)cc(C)oc1=O" , thanks.
A) -0.415

***
Q) Assign fluorescence slope to the following record: CC(C)C1=C2OC(N)=C(C#N)C(C#N)=C2C(C)CC1 (stereo not drawn)
A) -0.391

---

# maps each entry to its nuclei count
assay: inhibitors of E-selectin induction by TNFa, primary screen, imaging, HUVEC, immunofluorescence, MLSMR starter and 10KST1 sets (AID 487); conditions: HUVEC TNFalpha-induced E-selectin immunofluorescence imaging, at 2 µM; measured here: cell number, toxicity;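 also: 100% = median nuclei count of all wells on the same plate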
Form entry: value (%) — number only.

Q) Specify nuclei count for "O=C(O)c1cc(=O)cc(C(=O)O)[nH]1" and stop.
A) 188

More entries:
Q) Retrieve nuclei count measured for "Cc1nc(N2CCN(Cc3ccccc3)CC2)c(C#N)c2c1COC(C)(C)C2" and print it.
A) 195

Q) State its nuclei count: CCn1c(SC(C)C(=O)O)nc2sc3c(c2c1=O)CCC3 (stereo not drawn)
A) 108

Q) State its nuclei count for this compound: CCOc1ccc(CC2CC(=O)NC2=O)cc1 (stereo not drawn)
A) 185

Q) // fetch nuclei count given entry "S=c1[nH]nc(-c2ccccc2)n1Cc1ccccc1"
A) 170

Q) Please report the measured nuclei count for "C=CCn1cnc2c(c1=O)c1nc3ccccc3nc1n2-c1ccc(Cl)cc1"
A) 97.9

Q) Specify reported nuclei count for the compound shown: "CCCCC(=O)Nc1c(O)c2ccccc2[nH]c1=O"
A) 137

Q) Give reported nuclei count value for "COc1ccc(C(=O)c2sc(NC(C)C)nc2N)cc1OC"
A) 105

Q) Read the entry "Oc1ccc2ccccc2c1/C=N/n1cnnc1" and write its reported nuclei count.
A) 217

Q) Give the value of nuclei count reported for the following: "Cc1ccc(N(CN2C(=O)NC(C)(C)C2=O)CN2C(=O)NC(C)(C)C2=O)cc1"
A) 156

Q) Please give the documented nuclei count of "C=CCn1c(=S)[nH]c2nc3c(cc2c1=O)CCCC3"
A) 112

Q) For "COc1cccc(COc2nc3c(c(=O)n(C)c(=O)n3C)n2C)c1" , write its nuclei count.
A) 164

Q) In one line, give reported nuclei count of the entry "Cc1cn2c(-c3ccncc3)nnc2s1" .
A) 142

Q) Consider the compound "O=C(NCCO)c1cccc2c1C(=O)c1ccccc1-2" . State its measured nuclei count.
A) 137

Q) Note nuclei count for the compound shown: "CCOC(=O)c1c(C)[nH]sc1=S"
A) 95.8

Q) Return reported nuclei count. Input compound: "COc1cc(-n2c3nc4ccccc4nc3c3c(=O)n(Cc4ccco4)cnc32)cc(OC)c1OC"
A) 168

Q) Let me know recorded nuclei count for COc1cc(C2NC(=O)NC(C)=C2C(=O)Nc2cccc(C)c2C)cc(OC)c1OC (stereo not drawn) , thanks.
A) 183

Q) Provide one value: measured nuclei count of "COC(=O)c1[nH]c2cc(OC)ccc2c1NC(=O)CCN1CCCC(C)(C)C1"
A) 153

---

assay: PubChem AID 1714; settings: HEK293-KCC2 + bumetanide/ouabain, thallium flux FluoZin2; at 10 µM; stronger effect = higher value;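 also: raw slope of fluorescence over initial fluorescence between 10 and 20 s after thallium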
The other results are listed elsewhere or left out. Results filed as inconclusive are left out.
Item-by-item account of normalized thallium flux
Lab note: record just the number, no unit beside it.

Some solved cases for reference:
Q) Give recorded normalized thallium flux. "O=C(NNC(=S)NC(=O)c1cn(-c2ccccc2)nc1-c1ccccc1)c1ccncc1"
A) 0.0138

Q) Quote normalized thallium flux reported for "C(=N\n1cnnc1)/c1cccnc1" please.
A) 0.00647

Q) Respond only with normalized thallium flux recorded for "CCOc1ccc(C(=O)NCCCN2CCCC2=O)cc1"
A) 0.00728

Q) Identify measured normalized thallium flux associated with "O=c1[nH]c2ccccc2s1"
A) 0.00492

Q) Name the recorded normalized thallium flux of the molecule listed here: "CS(=O)(=O)N(CC(=O)N1CCN(c2ccc(F)cc2)CC1)C1CCCCC1"
A) 0.00489

***
Q) Input "S=c1ccc2ccccc2[nH]1" , output reported normalized thallium flux.
A) 0.0237

Q) Supply recorded normalized thallium flux for "O=C(CSc1cccc2cccnc12)N/N=C/c1cccnc1" here.
A) 0.0504

Q) Note normalized thallium flux for the molecule shown: "Cc1ccc(/C=N/NC(=S)Nc2cccc(S(=O)(=O)N(C)C)c2)o1"
A) 0.0101

Q) Input "O=C(N/N=C/c1ccc(Br)o1)c1cncc(Br)c1" , output reported normalized thallium flux.
A) 0.0326

Q) Supply reported normalized thallium flux belonging to this molecule: "CC(C)n1cnc2c(Nc3cccc(Cl)c3)nc(N(CCO)CCCO)nc21"
A) 0.00472

Q) Assign normalized thallium flux to the following record: "O=C(C1CCN(c2nnc(-n3cccc3)s2)CC1)N1CCc2ccccc2C1"
A) 0.00506

Q) Specify reported normalized thallium flux for the molecule shown: Brc1ccc(C2=CC(c3ccco3)n3ncnc3N2)cc1 (stereo not given)
A) 0.00178

---

assay: inhibitors of TNFa-induced NFkB p65 translocation, primary screen, imaging, HUVEC, MLSMR starter and 10KST1 sets (AID 438); conditions: HUVEC TNFa-induced p65 nuclear translocation; measured here: nuclei count (cytotoxicity indicator), at 2.08 µM;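 also: compound added about 3h40 before a 20 min TNFalpha stimulation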
Reported cell count values are given for each entry in this list.
# respond with the number and nothing more

Q) Identify cell count associated with the compound COc1ccc(/C(O)=C2/C(=O)C(=O)N(CCCN(C)C)C2c2cccc(Cl)c2)cc1OC (configuration not stated)
A) 382

Continuing:
Q) Supply reported cell count belonging to this compound: "CN=C1c2cc3c(Br)c(OC)ccc3n2CCN1C"
A) 550

---

molecular target: Voltage-gated potassium channel subunit beta-2 (Rattus norvegicus); test: KvBeta enzyme negative modulators, primary screen, biochemical, NADPH fluorescence (AID 622); details: recombinant KvBeta, 4-cyanobenzaldehyde reduction, at 10 µM, stronger effect = higher value;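 also: slope of raw intensity against log time taken from 70 to 1610 s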
RESULT_TYPE: fluorescence slope
Lab note: jot down the number only; don't add units.

Q) Return value of fluorescence slope for input Cn1c(=O)c2c3c(sc2n2c(SCC(N)=O)nnc12)CC(C(C)(C)C)CC3 (configuration not stated) , no commentary.
A) -0.371

Q) Read off the recorded fluorescence slope for "CCN(CC)c1ccc(-c2nn3c(-c4cccnc4)nnc3s2)cc1"
A) -0.39

Q) Report fluorescence slope, nothing else, for this compound: "CN(C)CCOc1ccccc1Cc1ccccc1"
A) -0.506

Q) For "O=C(Nn1cnnc1)C(c1ccccc1)c1ccccc1" , write its fluorescence slope.
A) -0.417

Q) Report fluorescence slope for "Cc1ccccc1C(=O)c1ccc2c(c1)n(C)c(=O)n2C"
A) -0.512

New cases:
Q) Entry "O=C(c1ccc2c(c1)OCCO2)N1CCCCC1" needs its fluorescence slope filled in; supply it.
A) -0.406

Q) Note down fluorescence slope recorded for "Cc1nc(-c2coc3cc(OCC(=O)O)ccc3c2=O)cs1"
A) -0.552

Q) Read the entry "Cn1c(=O)c2c(nc(NCc3ccc4c(c3)OCO4)n2Cc2ccccc2F)n(C)c1=O" and write its reported fluorescence slope.
A) -0.45

Q) Fill in reported fluorescence slope for this entry: "CN(C)[C@@H]1C(=O)C(C(N)=O)=C(O)[C@@]2(O)C(=O)C3=C(O)c4c(O)ccc(Cl)c4[C@@H](O)[C@H]3C[C@@H]12"
A) -0.537

Q) Tell us which fluorescence slope value is on record for "Cn1cc(NC(=O)c2cc(NC(=O)c3cc(NC=O)cn3C)cn2C)cc1C(=O)NCCC(=N)N"
A) -0.499

Q) Supply recorded fluorescence slope for "COc1ccc(CNC(=O)c2c(C)cc(=O)oc2C)cc1OC" here.
A) -0.427

Q) Return reported fluorescence slope. Input compound: CCN(CC)CCCN1C(=O)C(=O)/C(=C(/O)c2ccc(Cl)cc2)C1c1ccccn1 (configuration not stated)
A) -0.442
